assay: endothelial E-selectin expression blockers – imaging, HUVEC, immunofluorescence, MLSMR starter and 10KST1 sets, primary screen (AID 487); details: HUVEC TNFalpha-induced E-selectin immunofluorescence imaging, at 2 µM; active compounds read high;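 further: signal is fraction of cell area covered by stained E-selectin grains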
Listing of entries alongside the reported inhibition.
Parameter: inhibition (%)

Molecule: Cc1nn(Cc2ccc(C(=O)NC3CCCCC3)o2)c(C)c1Br
Measured: -30.6
//
Molecule: COc1ccc(C(=O)NCCSc2ccccn2)cc1
Measured: 48
//
Molecule: CCc1nc(SCC(=O)NCc2ccco2)c2c3c(sc2n1)CCCC3
Measured: -21.9
//
Molecule: CCN1CCN(C(=O)C2CCN(C(=O)c3cc4sccc4n3CC)CC2)CC1
Measured: -25.4
//
Molecule: COc1cccc(NC(=O)C2CCCN2C(=O)Nc2cccc(F)c2)c1 (stereo unspecified)
Measured: -62.2
//
Molecule: CCOC(=O)C1CCCn2c1nc1sc3c(c1c2=O)CCCC3 (stereo unspecified)
Measured: -114
//
Molecule: COC(=O)Nc1sc2c(c1C(N)=O)CCCCCC2
Measured: -53.8
//
Molecule: CC(=O)Nc1ccc(OC(=O)c2cccs2)cc1
Measured: 27.9
//
Molecule: Cc1cc(NC(=O)CSc2nc3ccccc3n2CC(=O)N2CCCCC2)no1
Measured: -70.8
//
Molecule: Cc1ccc(NC(=O)c2ccco2)cc1NC(=O)CSc1nnc(-c2cccs2)n1C
Measured: 24.1
//
Molecule: COCCCN(C(C)=O)c1nc(-c2ccccc2)cs1
Measured: 6
//
Molecule: COc1ccccc1NC(=O)c1cc2n(n1)C(C(F)(F)F)CC(c1ccc3c(c1)OCO3)N2 (stereo unspecified)
Measured: -14.9
//
Molecule: COc1ccc(-n2ncc3c(=O)n(CC(=O)OCc4ccccc4)cnc32)cc1
Measured: -26
//
Molecule: CC1=C(C(=O)NC2CCCC(C)C2C)C2(CCCCC2)OC1=O (stereo unspecified)
Measured: -37.4
//
Molecule: CCn1c(SCC(=O)N2CCOCC2)nc2c(c1=O)SC(C)C2 (stereo unspecified)
Measured: 20
//
Molecule: COc1ccc(S(=O)(=O)NCC(c2cccnc2)N2CCN(c3ccc(F)cc3)CC2)cc1C (stereo unspecified)
Measured: 19.6
//
Molecule: CCOC(=O)c1cc2c(=O)n3ccccc3nc2n(CC(C)C)c1=NC(=O)c1ccco1
Measured: -49.4
//
Molecule: CCOC(=O)c1ccc(NS(=O)(=O)c2ccc3c(c2)CCCN3C(C)=O)cc1
Measured: -93.7
//
Molecule: CCn1c(C)c(CCC(=O)O)c(=O)n2nc(-c3ccccc3OC)cc12
Measured: -121
//
Molecule: O=C(Nc1nccs1)c1ccc(COc2ccccc2Br)o1
Measured: -85.8
//
Molecule: CCSc1nnc(NC(=O)c2csc(C)c2)s1
Measured: -18.6
//
Molecule: O=C(Nc1ccc(OC(=O)c2ccco2)cc1)c1ccco1
Measured: 10.8
//
Molecule: CCN(CC)C(=O)C1CCCN(c2ncnc3c2cnn3-c2ccc(Cl)cc2)C1 (stereo unspecified)
Measured: -21.1
//
Molecule: CCOC(=O)c1c(NC(=O)c2ccn(CC)n2)sc2c1CCCC2
Measured: -71.6
//
Molecule: CCN1CCCC1CNC(=O)c1cc2c(=O)n(C)c3ccccc3c2n1C (stereo unspecified)
Measured: -41.6
//
Molecule: CCC(=O)Nc1c2c(nn1-c1ccccc1C)CSC2
Measured: 31.2
//
Molecule: O=C(Nc1ccncc1)C1c2ccccc2Oc2ccccc21
Measured: 19.9
//
Molecule: CC(=O)SCCC(=O)Nc1ccccc1
Measured: -61.7
//
Molecule: CCc1nc(SCc2cc(Cl)ccc2OC)n[nH]1
Measured: -47.4
//
Molecule: CC(=O)c1cc(-c2ccc(F)cc2)n(CCC(=O)Nc2cc(C)[nH]n2)c1C
Measured: 0
//
Molecule: Cc1ccc2nc(NCCCN3CCOCC3)c(C=NCCCN3CCOCC3)c(=O)n2c1
Measured: -49.1
//
Molecule: CCOC(=O)C(C(C)=O)c1nc(C)nc2c1nnn2Cc1ccccc1Cl (stereo unspecified)
Measured: -10.3
//
Molecule: O=C(O)c1ccc(COc2c(F)c(F)cc(F)c2F)cc1
Measured: -50.1
//
Molecule: COc1ccc(S(=O)(=O)N(C)C2CCN(C)CC2)cc1
Measured: -73.5
//
Molecule: CCNc1nc(N2CCOCC2)nc(N(c2ccccc2)c2ccccc2)n1
Measured: -3.9
//
Molecule: CCCN(Cc1cc2ccc(C)cc2[nH]c1=O)C(=O)c1cccnc1
Measured: -5.8
//
Molecule: CCOc1ccc(NC(=O)CSc2nnc(COc3c(C)cccc3C)o2)cc1
Measured: -13.1
//
Molecule: CN(C)CCCN1C(=O)c2oc3ccccc3c(=O)c2C1c1cccs1 (stereo unspecified)
Measured: -25.6
//
Molecule: Cc1cc(NC(=O)c2ccc3c(c2)C(=O)N(Cc2cccnc2)C3=O)no1
Measured: -127
//
Molecule: O=C(NCC1CCCO1)C1CCCN(S(=O)(=O)c2cccc3nsnc23)C1 (stereo unspecified)
Measured: -30.2
//
Molecule: Cc1nnc(SCC(=O)Nc2ccc(Br)cn2)[nH]c1=O
Measured: -43.2
//
Molecule: CCN1CCN(Cc2nc3c(c(=O)n(C)c(=O)n3C)n2CC(=O)c2ccccc2)CC1
Measured: -9.3
//
Molecule: CCCC(=O)Nc1ccccc1-c1nnn(CC(=O)Nc2ccc(OCC)cc2)n1
Measured: -7.5
//
Molecule: COc1ccc(S(=O)(=O)N2CCN(CC(=O)Nc3ccc(F)c(F)c3)CC2)cc1
Measured: -62.9
//
Molecule: O=C(Nc1nc2c(s1)CCc1ccccc1-2)c1cccs1
Measured: 30.8
//
Molecule: Cc1c(C(=O)Nc2cnccn2)oc2ccccc12
Measured: -97.6
